Biological target: AfUGM (Aspergillus fumigatus)
Construct: made in house
Sequence (Q4W1X2 whole entry): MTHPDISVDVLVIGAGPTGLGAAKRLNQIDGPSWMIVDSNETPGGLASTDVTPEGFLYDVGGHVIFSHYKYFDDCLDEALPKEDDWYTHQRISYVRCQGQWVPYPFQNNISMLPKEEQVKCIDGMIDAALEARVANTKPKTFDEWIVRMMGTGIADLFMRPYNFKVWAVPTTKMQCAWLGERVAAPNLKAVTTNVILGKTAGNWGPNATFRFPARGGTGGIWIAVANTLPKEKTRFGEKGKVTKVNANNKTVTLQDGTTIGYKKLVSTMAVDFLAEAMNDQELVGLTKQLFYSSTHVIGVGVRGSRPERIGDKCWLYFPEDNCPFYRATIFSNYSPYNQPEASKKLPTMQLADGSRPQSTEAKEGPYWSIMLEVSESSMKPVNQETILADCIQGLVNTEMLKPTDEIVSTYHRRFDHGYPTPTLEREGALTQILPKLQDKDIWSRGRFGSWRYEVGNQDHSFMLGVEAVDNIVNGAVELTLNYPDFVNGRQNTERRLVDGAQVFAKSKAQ
Test: FP binding assay to determine chromophore binding affinities (AfUGM)
Conditions: UDP-fluorescent probes, 15 nM chromophore, serially diluted AfUGM, 0.05 M sodium phosphate pH 7.0, fluorescence anisotropy; read-out: K d for AfUGM
measured metric: Kd

compound	target of assay	recorded result
CN(C)c1ccc2c(-c3ccc(C(=O)NCCOP(=O)(O)OP(=O)(O)OCC4OC(n5ccc(=O)[nH]c5=O)C(O)C4O)cc3C(=O)[O-])c3ccc(=[N+](C)C)cc-3oc2c1 (centres unmarked)	AfUGM (Aspergillus fumigatus)	3 µM
CN(C)c1ccc2c(-c3ccc(C(=O)NCCCCCCOP(=O)(O)OP(=O)(O)OCC4OC(n5ccc(=O)[nH]c5=O)C(O)C4O)cc3C(=O)[O-])c3ccc(=[N+](C)C)cc-3oc2c1 (centres unmarked)	AfUGM (Aspergillus fumigatus)	2.6 µM

---

# Kd values compiled below
Target: AfUGM (Aspergillus fumigatus)
Construct: made in house
Experiment: Competitive binding experiments using FP inhibition assay (AfUGM, chromophore 3 as probe)
measured metric: Kd (µM)

1) O=C1N/C(=N/S(=O)(=O)c2ccccc2)S/C1=C1/C(=O)Nc2ccc([N+](=O)[O-])cc21 11
2) O=C(Nc1ccccc1C(=O)O)c1ccc2c(c1)C(=O)N(c1ccc(Br)cc1)C2=O 140

---

Molecular target: MtUGM (Mycobacterium tuberculosis)
Construct: made in house
Sequence (P9WIQ1 whole entry): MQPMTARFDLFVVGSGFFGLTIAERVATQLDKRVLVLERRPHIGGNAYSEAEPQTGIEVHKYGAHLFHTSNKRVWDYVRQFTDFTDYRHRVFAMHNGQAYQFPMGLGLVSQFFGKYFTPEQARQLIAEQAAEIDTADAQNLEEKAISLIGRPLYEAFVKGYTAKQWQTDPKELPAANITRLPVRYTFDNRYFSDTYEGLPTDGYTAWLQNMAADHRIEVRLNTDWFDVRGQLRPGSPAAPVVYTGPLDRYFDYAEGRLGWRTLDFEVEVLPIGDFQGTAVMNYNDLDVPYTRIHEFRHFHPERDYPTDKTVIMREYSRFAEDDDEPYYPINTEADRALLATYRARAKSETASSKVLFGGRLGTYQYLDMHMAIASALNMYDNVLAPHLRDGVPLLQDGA
Assay: FP binding assay to determine chromophore binding affinities (MtUGM)
Conditions: UDP-fluorescent probes, fluorescence anisotropy; read-out: K d for MtUGM
pKd: −log10 of the molar value.

compound	target of assay	pKd
CN(C)c1ccc2c(-c3ccc(C(=O)NCCCCCCOP(=O)(O)OP(=O)(O)OCC4OC(n5ccc(=O)[nH]c5=O)C(O)C4O)cc3C(=O)[O-])c3ccc(=[N+](C)C)cc-3oc2c1 (centres unmarked)	MtUGM (Mycobacterium tuberculosis)	6.14

The measured values listed here are drawn from paper PMC3159312.
